species: Rattus norvegicus; assay: DrugMatrix - Regimen: Daily Repeat; format: toxicity, organism-based, Sprague-Dawley; parameters: regimen Daily Repeat, gender Male, age 6-8 weeks; details: in vivo, po, 0 mg/kg, 72 h, tissue Blood, route oral GAVAGE, dose level Control, time 3 day, vehicle 100 % WATER
measured.quantity: ABSOLUTE LYMPHOCYTE (CELLS/uL)
Expressed in CELLS/uL, but write only the number.

-- ask Consider the compound NNc1nncc2ccccc12 [HYDRALAZINE] and give its measured ABSOLUTE LYMPHOCYTE.
-- reply 12371.67

-- ask Consider the compound CC(C)NCC(O)c1ccc(NS(C)(=O)=O)cc1 (centres undefined) and give its measured ABSOLUTE LYMPHOCYTE.
-- reply 12758

-- ask Consider the compound "C[C@]12C=CC(=O)C=C1CC[C@@H]1[C@@H]2[C@@H](O)C[C@@]2(C)[C@H]1CC[C@]2(O)C(=O)CO" and give its measured ABSOLUTE LYMPHOCYTE.
-- reply 13105

-- ask Consider the compound "Cc1ccc(NC(=O)c2ccc(CN3CCN(C)CC3)cc2)cc1Nc1nccc(-c2cccnc2)n1" and give its measured ABSOLUTE LYMPHOCYTE.
-- reply 10599.5

====

organism: Rattus norvegicus; assay: DrugMatrix - Regimen: Daily Repeat; assay type: toxicity, organism-based, Sprague-Dawley; parameters: regimen Daily Repeat, gender Male, age 6-8 weeks; settings: in vivo, po, 0 mg/kg, 120 h, tissue Plasma, route oral GAVAGE, dose level Control, time 5 day, vehicle .5 % CMC
Exercise: for every item that follows, state its recorded PHOSPHORUS.
Expressed in mg/dL, but write only the number.

-- ask Consider the compound Cn1c(=O)c2c(ncn2CC(O)CO)n(C)c1=O (configuration not stated) and give its measured PHOSPHORUS.
-- reply 11.93

-- ask Consider the compound "CC(=O)Oc1ccc(C(c2ccc(OC(C)=O)cc2)c2ccccn2)cc1" and give its measured PHOSPHORUS.
-- reply 10.87

-- ask Consider the compound "NCCCC(O)(P(=O)(O)O)P(=O)(O)O" and give its measured PHOSPHORUS.
-- reply 9.72

-- ask Consider the compound "CN/C(=N/CCSCc1nc[nH]c1C)NC#N" and give its measured PHOSPHORUS.
-- reply 12.3

-- ask Consider the compound "Clc1ccccc1CN1CCc2sccc2C1" and give its measured PHOSPHORUS.
-- reply 9.72

-- ask Consider the compound O=C1Nc2ccc(Cl)cc2C(c2ccccc2Cl)=NC1O (configuration not stated) and give its measured PHOSPHORUS.
-- reply 11.87

-- ask Consider the compound "C[C@H]1O[C@@H](n2cc(F)c(=O)[nH]c2=O)[C@H](O)[C@@H]1O" and give its measured PHOSPHORUS.
-- reply 12.3

-- ask Consider the compound "COC1=C(OC)C(=O)C(CCCCCCCCCCO)=C(C)C1=O" and give its measured PHOSPHORUS.
-- reply 12.3

-- ask Consider the compound CNCCC(Oc1ccc(C(F)(F)F)cc1)c1ccccc1 (configuration not stated) and give its measured PHOSPHORUS.
-- reply 9.53

-- ask Consider the compound "O=C1CN=C(c2ccccc2Cl)c2cc([N+](=O)[O-])ccc2N1" and give its measured PHOSPHORUS.
-- reply 12.3

-- ask Consider the compound "CN(C)[C@@H]1C(O)=C(C(N)=O)C(=O)[C@@]2(O)C(O)=C3C(=O)c4c(O)ccc(Cl)c4[C@@](C)(O)[C@H]3C[C@@H]12" and give its measured PHOSPHORUS.
-- reply 11.93

-- ask Consider the compound "COc1ccc(C2C(=O)c3ccccc3C2=O)cc1" and give its measured PHOSPHORUS.
-- reply 9.72

====

organism: Rattus norvegicus; test: DrugMatrix - Regimen: Daily Repeat; type: toxicity, organism-based, Sprague-Dawley; parameters: regimen Daily Repeat, gender Male, age 6-8 weeks; conditions: in vivo, po, 0 mg/kg, 72 h, tissue Blood, route oral GAVAGE, dose level Control, time 3 day, vehicle 100 % WATER
Exercise: for every item that follows, state its recorded MEAN CORPUSCULAR VOLUME.
Expressed in fL, but write only the number.

-- ask Consider the compound Oc1cccc(O)c1O [PYROGALLOL] and give its measured MEAN CORPUSCULAR VOLUME.
-- reply 60.52

-- ask Consider the compound CC(C)NCC(O)c1ccc(NS(C)(=O)=O)cc1 (stereo unspecified) [SOTALOL] and give its measured MEAN CORPUSCULAR VOLUME.
-- reply 63.25

-- ask Consider the compound NNc1nncc2ccccc12 [HYDRALAZINE] and give its measured MEAN CORPUSCULAR VOLUME.
-- reply 63.07

-- ask Consider the compound CN(C)CCOC(c1ccccc1)c1ccccc1 [DIPHENHYDRAMINE] and give its measured MEAN CORPUSCULAR VOLUME.
-- reply 63.07

-- ask Consider the compound CS(=O)(=O)c1ccc([C@@H](O)[C@@H](CO)NC(=O)C(Cl)Cl)cc1 [THIAMPHENICOL] and give its measured MEAN CORPUSCULAR VOLUME.
-- reply 63.85

-- ask Consider the compound CN(C)CC[C@@H](c1ccc(Cl)cc1)c1ccccn1 [DEXCHLORPHENIRAMINE] and give its measured MEAN CORPUSCULAR VOLUME.
-- reply 64.85

====

Exercise: for every item that follows, state its recorded ERYTHROCYTE COUNT.
species on record: Rattus norvegicus; assay: DrugMatrix - Regimen: Daily Repeat; format: toxicity, organism-based, Sprague-Dawley; set-up: regimen Daily Repeat, gender Male, age 6-8 weeks; settings: in vivo, po, 0 mg/kg, 72 h, tissue Blood, route oral GAVAGE, dose level Control, time 3 day, vehicle 100 % WATER
Expressed in x10E6/uL, but write only the number.

-- ask Consider the compound "Oc1cccc(O)c1O" and give its measured ERYTHROCYTE COUNT.
-- reply 5.8

-- ask Consider the compound CN(C)CCOC(c1ccccc1)c1ccccc1 [DIPHENHYDRAMINE] and give its measured ERYTHROCYTE COUNT.
-- reply 5.46

-- ask Consider the compound CC(C)(C)CC(C)(C)c1ccc(OCCOCC[N+](C)(C)Cc2ccccc2)cc1.[Cl-] [BENZETHONIUM CHLORIDE] and give its measured ERYTHROCYTE COUNT.
-- reply 5.46

====

species: Rattus norvegicus; assay: DrugMatrix - Regimen: Daily Repeat; format: toxicity, organism-based, Sprague-Dawley; design: regimen Daily Repeat, gender Male, age 6-8 weeks; details: in vivo, po, 0 mg/kg, 120 h, tissue Blood, route oral GAVAGE, dose level Control, time 5 day, vehicle .5 % CMC
measured.quantity: HEMATOCRIT (%)
Expressed in %, but write only the number.

-- ask Consider the molecule "COC1=C(OC)C(=O)C(CCCCCCCCCCO)=C(C)C1=O" and give its measured HEMATOCRIT.
-- reply 33.8

-- ask Consider the molecule "NCCCC(O)(P(=O)(O)O)P(=O)(O)O" and give its measured HEMATOCRIT.
-- reply 40.02

-- ask Consider the molecule "CN/C(=N/CCSCc1nc[nH]c1C)NC#N" and give its measured HEMATOCRIT.
-- reply 33.8

-- ask Consider the molecule CC(C(=O)O)c1ccc2oc(-c3ccc(Cl)cc3)nc2c1 (stereo not drawn) and give its measured HEMATOCRIT.
-- reply 45.12

-- ask Consider the molecule CNCCC(Oc1ccc(C(F)(F)F)cc1)c1ccccc1 (stereo not drawn) and give its measured HEMATOCRIT.
-- reply 37.08

-- ask Consider the molecule "CN(C)[C@@H]1C(O)=C(C(N)=O)C(=O)[C@@]2(O)C(O)=C3C(=O)c4c(O)ccc(Cl)c4[C@@](C)(O)[C@H]3C[C@@H]12" and give its measured HEMATOCRIT.
-- reply 35.52

-- ask Consider the molecule "Clc1ccccc1CN1CCc2sccc2C1" and give its measured HEMATOCRIT.
-- reply 40.02

-- ask Consider the molecule "COc1cc2nc(N3CCN(C(=O)c4ccco4)CC3)nc(N)c2cc1OC" and give its measured HEMATOCRIT.
-- reply 33.98

====

species: Rattus norvegicus; assay: DrugMatrix - Regimen: Daily Repeat; type: toxicity, organism-based, Sprague-Dawley; design: regimen Daily Repeat, gender Male, age 6-8 weeks; settings: in vivo, po, 0 mg/kg, 120 h, tissue Plasma, route oral GAVAGE, dose level Control, time 5 day, vehicle .5 % CMC
measured.quantity: ASPARTATE AMINOTRANSFERASE (u/L)
Expressed in u/L, but write only the number.

-- ask Consider the compound NC1CCN(c2nc3c(cc2F)c(=O)c(C(=O)O)cn3-c2ccc(F)cc2F)C1 (stereo unspecified) and give its measured ASPARTATE AMINOTRANSFERASE.
-- reply 68.33

-- ask Consider the compound "C[C@H]1O[C@@H](n2cc(F)c(=O)[nH]c2=O)[C@H](O)[C@@H]1O" and give its measured ASPARTATE AMINOTRANSFERASE.
-- reply 94.67

-- ask Consider the compound Cn1c(=O)c2c(ncn2CC(O)CO)n(C)c1=O (stereo unspecified) and give its measured ASPARTATE AMINOTRANSFERASE.
-- reply 81.67

-- ask Consider the compound "COc1cc2nc(N3CCN(C(=O)c4ccco4)CC3)nc(N)c2cc1OC" and give its measured ASPARTATE AMINOTRANSFERASE.
-- reply 89.67

-- ask Consider the compound "CC(=O)Oc1ccc(C(c2ccc(OC(C)=O)cc2)c2ccccn2)cc1" and give its measured ASPARTATE AMINOTRANSFERASE.
-- reply 63.33

-- ask Consider the compound "CN(C)[C@@H]1C(O)=C(C(N)=O)C(=O)[C@@]2(O)C(O)=C3C(=O)c4c(O)ccc(Cl)c4[C@@](C)(O)[C@H]3C[C@@H]12" and give its measured ASPARTATE AMINOTRANSFERASE.
-- reply 81.67

-- ask Consider the compound "CN(C/C=C/C#CC(C)(C)C)Cc1cccc2ccccc12" and give its measured ASPARTATE AMINOTRANSFERASE.
-- reply 68.33

-- ask Consider the compound "CCN(CC)CCOc1ccc(/C(=C(/Cl)c2ccccc2)c2ccccc2)cc1" and give its measured ASPARTATE AMINOTRANSFERASE.
-- reply 76.5

-- ask Consider the compound "NCCCC(O)(P(=O)(O)O)P(=O)(O)O" and give its measured ASPARTATE AMINOTRANSFERASE.
-- reply 61.33

-- ask Consider the compound "COc1ccc(C2C(=O)c3ccccc3C2=O)cc1" and give its measured ASPARTATE AMINOTRANSFERASE.
-- reply 61.33

-- ask Consider the compound O=C1Nc2ccc(Cl)cc2C(c2ccccc2Cl)=NC1O (stereo unspecified) and give its measured ASPARTATE AMINOTRANSFERASE.
-- reply 89.67

-- ask Consider the compound O=C1C(CC[S+]([O-])c2ccccc2)C(=O)N(c2ccccc2)N1c1ccccc1 (stereo unspecified) and give its measured ASPARTATE AMINOTRANSFERASE.
-- reply 89.67

-- ask Consider the compound CNCCC(Oc1ccc(C(F)(F)F)cc1)c1ccccc1 (stereo unspecified) and give its measured ASPARTATE AMINOTRANSFERASE.
-- reply 65

-- ask Consider the compound CC(C(=O)O)c1ccc2oc(-c3ccc(Cl)cc3)nc2c1 (stereo unspecified) and give its measured ASPARTATE AMINOTRANSFERASE.
-- reply 74.17

-- ask Consider the compound "COC1=C(OC)C(=O)C(CCCCCCCCCCO)=C(C)C1=O" and give its measured ASPARTATE AMINOTRANSFERASE.
-- reply 94.67

-- ask Consider the compound "CN/C(=N/CCSCc1nc[nH]c1C)NC#N" and give its measured ASPARTATE AMINOTRANSFERASE.
-- reply 94.67
